Test system: HepG2
method summary: GSK_TCMDC: Percent inhibition of human HepG2 cell line. Test compounds present at 10uM.
Assay type: functional
Assign rule met to entries whose Inhibition meets or exceeds 30%; assign rule not met to the rest.

Example cases with answers are listed next.
> print(dat)
                                   compound  label.class
1  O=C(Nc1cccc(-c2ccc(CN3CCCC3)cc2)c1)c1cccc(Cl)c1.O=C(O)C(F)(F)F     rule met
2  CS(=O)(=O)O.FC(F)(F)COc1ccc(CCNCCCCNCCc2ccc(OCC(F)(F)F)c3ccccc23)c2ccccc12     rule met

[in] Reported Inhibition reaches at least 30% for `COc1ccc2ncc(F)c([C@H](O)CN3CCC(NCc4ccc5c(c4)NC(=O)CS5)CC3)c2c1.Cl` ?
[out] rule not met

[in] Reported Inhibition reaches at least 30% for `CCN(CC)CCN(Cc1ccc(-c2ccc(C(F)(F)F)cc2)nc1)C(=O)Cn1c(SCc2ccc(F)cc2)nc(=O)c2sccc21.O=C(O)C(O)C(O)C(=O)O` ?
[out] rule met

[in] Reported Inhibition reaches at least 30% for `CS(=O)(=O)c1ccc(CNCc2cccc(-c3cccc(-c4nc5cc(C(F)(F)F)ccc5[nH]4)c3)c2)cc1.O=C(O)C(F)(F)F` ?
[out] rule not met

[in] Reported Inhibition reaches at least 30% for `O=C(/C=C/c1ccc(Br)cc1)NCCCCCN1CCC(c2c[nH]c3ccccc23)CC1` ?
[out] rule met

[in] Reported Inhibition reaches at least 30% for `Cc1c(CNCCCNc2cc(=O)c3ccccc3[nH]2)sc(/C=N/O)c1Br.Cl` ?
[out] rule not met

* * *

Test system: Plasmodium falciparum
method summary: GSK_TCMDC: Inhibition of Plasmodium falciparum 3D7 in whole red blood cells, using parasite LDH activity as an index of growth. Test compounds present at 2uM
Format: functional
The following molecules are listed with their measured Inhibition values.
Only the number, expressed in %, is required.

The recorded Inhibition for entry `Cc1ccc(-c2nc3cc(NC(=O)c4ccc([N+](=O)[O-])o4)ccc3o2)cc1Cl` equals 100

* * *

Test system: HepG2
method summary: GSK_TCMDC: Percent inhibition of human HepG2 cell line. Test compounds present at 10uM.
Assay type: functional
The following molecules are listed with their measured Inhibition values.
Only the number, expressed in %, is required.

Use the examples below as a reference point.
> print(dat)
                                   molecule  system.name  test.readout  unit.abbrev  endpoint.value
1  COc1ccc(CCn2c(=N)c(C(=O)NCc3cccnc3)cc3c(=O)n4cccc(C)c4nc32)cc1        HepG2    Inhibition            %               5
2  CC(C)(C)CCN1CCC(CNC(=O)c2cc(-c3cccc(C(F)(F)F)c3)cs2)C1.O=C(O)C(F)(F)F (centres undefined)        HepG2    Inhibition            %              47
3  CCCCCCCN1CC[C@@H](CCCc2ccnc3ccc(OC)cc23)[C@@H](CNC)C1.O=C(O)C(=O)O        HepG2    Inhibition            %              25
4  Cc1cc(C(=O)NC2CCN(CC3(c4ccccc4)CCCCC3)CC2)on1        HepG2    Inhibition            %               0
5  Fc1ccc(-c2cc3ncnc(N4CCN(CCN5CCCC5)CC4)c3s2)cc1        HepG2    Inhibition            %              25

The recorded Inhibition for entry `Cc1ccc(-c2nc3ccccc3o2)cc1NCc1cc(Cc2ccccc2)ccc1O` equals 45

The recorded Inhibition for entry `CCCC1(NC[C@@H](O)[C@H](Cc2ccccc2)NC(=O)c2cc(NCC)cc(N3CCCCS3(=O)=O)c2)CC1.Cl` equals 1

The recorded Inhibition for entry `COc1ccc(S(=O)(=O)NCCCC2CCN(CCCCCNC(=O)C=Cc3ccc(Cl)c(Cl)c3)CC2)cc1` equals 24

The recorded Inhibition for entry COc1cc(Nc2nccc(N3CCC(NC(=O)C(C)c4ccc(Cl)cc4)C3)n2)cc(OC)c1OC (centres undefined) equals 2

The recorded Inhibition for entry `Cn1nc(C(F)(F)F)c(-c2ccc(F)cc2)c1NC(=O)Nc1ccc(F)cc1F` equals 11
